Assignment: determine reported yeast fitness (ln) for the given variants.
B1: tRNA (parent)
chain: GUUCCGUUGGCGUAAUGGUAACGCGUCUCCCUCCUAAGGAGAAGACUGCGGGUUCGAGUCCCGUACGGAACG

variants of: B1; test: yeast fitness, log relative to wild type (ln ratio); higher = fitter; tRNA-Arg(CCU), competitive growth, 37 C, 1 M NaCl
Answer with a bare number; do not write a unit.

Fill in: yeast fitness (ln) of U2G G6U C27U C46U C66U A70U is ___
-0.106

Fill in: yeast fitness (ln) of U2G G6A C27U C66A A69G A70G C71U is ___
-0.249

Fill in: yeast fitness (ln) of C46U C66A A69G A70U is ___
-0.0373

Fill in: yeast fitness (ln) of G6A C27U C66A is ___
-0.192

Fill in: yeast fitness (ln) of G1A U2G G6U C66A A69G A70U C71U is ___
-0.335

Fill in: yeast fitness (ln) of U2G G6U C27U A43C C66A A69G A70U C71U is ___
-0.382

Fill in: yeast fitness (ln) of U2C C27U A43C C66U A69G A70G C71U is ___
-0.288

Fill in: yeast fitness (ln) of G1A G6U C27U C66A C71U is ___
-0.0761

Fill in: yeast fitness (ln) of G1A U2G A43C C66U A69G A70U is ___
-0.287

Fill in: yeast fitness (ln) of G1A G6U C46U C66A A69G A70G is ___
-0.158

Fill in: yeast fitness (ln) of G1A U2G G6U A43C C46U A69G A70G C71U is ___
-0.345

Fill in: yeast fitness (ln) of G6U C46U C66A A69G is ___
-0.0364

Fill in: yeast fitness (ln) of U2G G6U C66U A69G A70G is ___
-0.251

Fill in: yeast fitness (ln) of G6A C27U A43C A69G A70U is ___
-0.345

Fill in: yeast fitness (ln) of U2G G6U C27U A43C C46U C66U A70G is ___
-0.311

Fill in: yeast fitness (ln) of G6A A43C C46U A69G A70U C71U is ___
-0.493

Fill in: yeast fitness (ln) of C46U C71U is ___
-0.00784

Fill in: yeast fitness (ln) of G1A U2C C66U A70G C71U is ___
0.00307
